# TESTED_TARGET: MLK-3 (Homo sapiens)
# PROTOCOL: Biochemical assay for the inhibition of kinase activity for MLK-3 (33P-ATP, HOTSPOT filter binding)
# EXPERIMENTAL_SETUP: activated MLK-3 20 nM, ATP 50 μM, myelin basic protein 20 μM, 20 minutes room temperature
Each entry below carries its recorded IC50.

Field: example entries. Status: answers known.
INSERT INTO measurements (compound, result) VALUES
  ('COc1cc2sc(-c3cnc4ccc(N[C@H]5CC[C@H](O)CC5)nn34)cc2c(OC)c1OC [Compound 176]', '100 to 500 nM'),
  ('Cc1ccc2sc(-c3cnc4ccc(N[C@H]5CC[C@H](O)CC5)nn34)cc2c1 [Compound 192]', '500 to 1000 nM'),
  ('COc1ccc2cc(-c3cnc4ccc(N[C@H]5CC[C@H](O)CC5)nn34)sc2c1 [Compound 172]', '100 to 500 nM'),
  ('CCCOc1cccc2cc(-c3cnc4ccc(Nc5ccc(OC)c(OC)c5)nn34)sc12 [Compound 81]', '500 to 1000 nM'),
  ('CCCNc1ccc2ncc(-c3ccc4[nH]ccc4c3)n2n1 [Compound 140]', '< 5000 nM');

// fetch IC50 for COc1ccc(Nc2ccc3ncc(-c4ccc(CO)s4)n3n2)cc1OC [Compound 84] ; system: MLK-3 (Homo sapiens) < 5000 nM

// fetch IC50 for COc1ccc(N(C)c2ccc3ncc(-c4cc5cc(OC)c(OC)cc5s4)n3n2)cc1OC [Compound 75] ; system: MLK-3 (Homo sapiens) 100 to 500 nM

// fetch IC50 for COc1ccc(Nc2ccc3ncc(-c4ccc5[nH]ccc5c4)n3n2)cc1OC [Compound 53] ; system: MLK-3 (Homo sapiens) 500 to 1000 nM

* * *

# PROTOCOL: Blood brain barrier penetration: standard murine pharmacokinetic model, plasma and brain concentrations
# Format: in vivo
# EXPERIMENTAL_SETUP: mouse; brain concentration 3 hrs after single IV injection 10 mg/kg, CL57 BL/6 mice; read-out: Cbrain 3 hrs
Each entry below carries its recorded concentration at 3 h.
Express your answer in ng/g, writing the number without its unit.

Field: example entries. Status: answers known.
INSERT INTO assay_data (molecule, value_unit, measured_number) VALUES
  ('COc1ccc(Nc2ccc3ncc(-c4cc5cccc(OC)c5s4)n3n2)cc1OC [Compound 68]', 'ng/g', 1550),
  ('COc1cc2cc(-c3cnc4ccc(N(C)[C@H]5CC[C@H](OC)CC5)nn34)sc2cc1OC [Compound 175]', 'ng/g', 1880),
  ('COc1ccc(Nc2ccc3ncc(-c4cc5cc(OC)c(OC)cc5s4)n3n2)cc1OC [Compound 67]', 'ng/g', 566);

Please find the next molecule below.
For the molecule COc1ccc(Nc2ccc3ncc(-c4cc5ccccc5s4)n3n2)cc1OC [Compound 12] , give its reported concentration at 3 h. 1280

* * *

# TESTED_TARGET: MLK-3 (Homo sapiens, UniProt Q16584)
# Sequence (Q16584 whole entry): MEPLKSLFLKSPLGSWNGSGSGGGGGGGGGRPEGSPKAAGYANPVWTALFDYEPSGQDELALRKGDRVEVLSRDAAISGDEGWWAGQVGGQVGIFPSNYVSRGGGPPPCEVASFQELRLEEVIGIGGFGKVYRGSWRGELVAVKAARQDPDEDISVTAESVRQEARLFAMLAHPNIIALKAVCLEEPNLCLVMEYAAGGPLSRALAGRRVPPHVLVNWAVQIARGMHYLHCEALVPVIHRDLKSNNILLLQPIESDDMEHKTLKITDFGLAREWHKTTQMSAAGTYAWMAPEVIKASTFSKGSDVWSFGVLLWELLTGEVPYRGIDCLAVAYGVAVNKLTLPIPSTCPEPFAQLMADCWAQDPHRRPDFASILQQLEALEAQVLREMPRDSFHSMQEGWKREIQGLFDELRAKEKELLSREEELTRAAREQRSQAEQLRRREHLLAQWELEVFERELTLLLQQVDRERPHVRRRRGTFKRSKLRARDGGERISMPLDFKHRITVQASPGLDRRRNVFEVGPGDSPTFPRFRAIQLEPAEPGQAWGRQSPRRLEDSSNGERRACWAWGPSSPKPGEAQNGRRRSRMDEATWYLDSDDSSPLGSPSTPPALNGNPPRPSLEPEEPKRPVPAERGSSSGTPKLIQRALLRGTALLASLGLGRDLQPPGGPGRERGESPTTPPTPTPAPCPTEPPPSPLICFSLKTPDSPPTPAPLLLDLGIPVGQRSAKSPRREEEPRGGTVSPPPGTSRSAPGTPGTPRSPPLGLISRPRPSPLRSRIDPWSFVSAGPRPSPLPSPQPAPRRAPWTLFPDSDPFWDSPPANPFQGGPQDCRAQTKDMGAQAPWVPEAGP
# PROTOCOL: Biochemical assay for the inhibition of kinase activity for MLK-3 (33P-ATP, HOTSPOT filter binding)
# EXPERIMENTAL_SETUP: activated MLK-3 20 nM, ATP 50 μM, myelin basic protein 20 μM, 20 minutes room temperature
pIC50: −log10 of the molar value.
Each entry below carries its recorded pIC50.

INSERT INTO measurements (compound, tested_target, result) VALUES
  ('Cc1c(-c2cnc3ccc(N[C@H]4CC[C@H](O)CC4)nn23)sc2ccc(Cl)cc12', 'MLK-3 (Homo sapiens, UniProt Q16584)', '6.00 to 6.30'),
  ('COc1cc2cc(-c3cnc4ccc(-c5cccc(CN6CCN(C)CC6)c5)nn34)sc2cc1OC', 'MLK-3 (Homo sapiens, UniProt Q16584)', '6.00 to 6.30');

Please find the next compound below.
For the compound COc1cc2cc(-c3cnc4ccc(N[C@H]5CC[C@H](O)CC5)nn34)sc2c(OC)c1OC , give its reported pIC50. > 7.00
